# testedTarget: human V1a receptor (Homo sapiens, UniProt P37288)
# Construct: expressed in transfected cells; host or cells: CHO K1 (ATCC), also stably transfected with a modified aequorin
# Sequence (P37288 whole entry): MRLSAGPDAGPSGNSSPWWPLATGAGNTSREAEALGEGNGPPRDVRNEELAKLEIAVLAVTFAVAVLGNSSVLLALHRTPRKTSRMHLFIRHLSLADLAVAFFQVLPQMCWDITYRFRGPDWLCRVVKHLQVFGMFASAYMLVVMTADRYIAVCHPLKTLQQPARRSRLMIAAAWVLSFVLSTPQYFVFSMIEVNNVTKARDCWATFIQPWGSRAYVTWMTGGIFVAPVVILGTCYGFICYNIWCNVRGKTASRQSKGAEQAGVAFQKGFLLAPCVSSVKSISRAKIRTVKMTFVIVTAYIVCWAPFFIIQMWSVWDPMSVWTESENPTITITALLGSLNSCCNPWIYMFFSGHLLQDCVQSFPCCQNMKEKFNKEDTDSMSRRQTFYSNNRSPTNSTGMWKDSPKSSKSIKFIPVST
# experimentalProtocol: Cellular in vitro assay for vasopressin receptor activity, V1a receptor cell line (photoprotein luminescence)
# Type: cell-based
# conditionSet: Table 1A; compounds of the invention; selectivity ratio
hey, just use class 1 if measured ratio IC50 hV2/hV1a is less than 90, otherwise class 0

molecule: NC(=O)c1nc(Cn2nc(-c3ccc(Cl)cc3)n(C[C@H](O)C(F)(F)F)c2=O)nn1-c1ncccc1OC(F)(F)F [Example 3]
testedTarget: human V1a receptor (Homo sapiens, UniProt P37288)
qualitativeLabel: class 1
//
molecule: NC(=O)c1nc(Cn2nc(-c3ccc(Cl)cc3)n(C[C@H](O)C(F)(F)F)c2=O)nn1-c1ncccc1Cl [Example 1]
testedTarget: human V1a receptor (Homo sapiens, UniProt P37288)
qualitativeLabel: class 1
//
molecule: NC(=O)c1nc(Cn2nc(-c3ccc(Cl)cc3)n(C[C@@H](O)C(F)(F)F)c2=O)nn1-c1cnccc1C(F)(F)F [Example 13]
testedTarget: human V1a receptor (Homo sapiens, UniProt P37288)
qualitativeLabel: class 0
//
molecule: NC(=O)c1nc(Cn2nc(-c3ccc(Cl)cc3)n(CC(=O)C(F)(F)F)c2=O)nn1-c1ncccc1Cl [Example 14]
testedTarget: human V1a receptor (Homo sapiens, UniProt P37288)
qualitativeLabel: class 1
//
molecule: NC(=O)c1cccnc1-n1nc(Cn2nc(-c3ccc(Cl)cc3)n(C[C@H](O)C(F)(F)F)c2=O)nc1C(N)=O [Example 9]
testedTarget: human V1a receptor (Homo sapiens, UniProt P37288)
qualitativeLabel: class 1
//
molecule: NC(=O)c1nc(Cn2nc(-c3ccc(Cl)cc3)n(CC(=O)C(F)(F)F)c2=O)nn1-c1ncccc1Br [Example 15]
testedTarget: human V1a receptor (Homo sapiens, UniProt P37288)
qualitativeLabel: class 1
//
molecule: CCOC(=O)c1cccnc1-n1nc(Cn2nc(-c3ccc(Cl)cc3)n(C[C@H](O)C(F)(F)F)c2=O)nc1C(N)=O [Example 5]
testedTarget: human V1a receptor (Homo sapiens, UniProt P37288)
qualitativeLabel: class 1
//
molecule: NC(=O)c1nc(Cn2nc(-c3ccc(Cl)cc3)n(C[C@@H](O)C(F)(F)F)c2=O)nn1-c1cnccc1Cl [Example 12]
testedTarget: human V1a receptor (Homo sapiens, UniProt P37288)
qualitativeLabel: class 0
//
molecule: NC(=O)c1nc(Cn2nc(-c3ccc(Cl)cc3)n(C[C@H](O)C(F)(F)F)c2=O)nn1-c1ncccc1C(F)(F)F [Example 2]
testedTarget: human V1a receptor (Homo sapiens, UniProt P37288)
qualitativeLabel: class 0
//
molecule: NC(=O)c1nc(Cn2nc(-c3ccc(Cl)cc3)n(C[C@@H](O)C(F)(F)F)c2=O)nn1-c1ncccc1Cl [Example 10]
testedTarget: human V1a receptor (Homo sapiens, UniProt P37288)
qualitativeLabel: class 0

The measurements presented in this section are drawn from patent US11091463B2.
